Some compounds, each annotated with its measured pIC50.
# system.name: AHR (Mus musculus, UniProt P30561)
# Sequence (P30561 whole entry P471L/N533S/M589L, form open): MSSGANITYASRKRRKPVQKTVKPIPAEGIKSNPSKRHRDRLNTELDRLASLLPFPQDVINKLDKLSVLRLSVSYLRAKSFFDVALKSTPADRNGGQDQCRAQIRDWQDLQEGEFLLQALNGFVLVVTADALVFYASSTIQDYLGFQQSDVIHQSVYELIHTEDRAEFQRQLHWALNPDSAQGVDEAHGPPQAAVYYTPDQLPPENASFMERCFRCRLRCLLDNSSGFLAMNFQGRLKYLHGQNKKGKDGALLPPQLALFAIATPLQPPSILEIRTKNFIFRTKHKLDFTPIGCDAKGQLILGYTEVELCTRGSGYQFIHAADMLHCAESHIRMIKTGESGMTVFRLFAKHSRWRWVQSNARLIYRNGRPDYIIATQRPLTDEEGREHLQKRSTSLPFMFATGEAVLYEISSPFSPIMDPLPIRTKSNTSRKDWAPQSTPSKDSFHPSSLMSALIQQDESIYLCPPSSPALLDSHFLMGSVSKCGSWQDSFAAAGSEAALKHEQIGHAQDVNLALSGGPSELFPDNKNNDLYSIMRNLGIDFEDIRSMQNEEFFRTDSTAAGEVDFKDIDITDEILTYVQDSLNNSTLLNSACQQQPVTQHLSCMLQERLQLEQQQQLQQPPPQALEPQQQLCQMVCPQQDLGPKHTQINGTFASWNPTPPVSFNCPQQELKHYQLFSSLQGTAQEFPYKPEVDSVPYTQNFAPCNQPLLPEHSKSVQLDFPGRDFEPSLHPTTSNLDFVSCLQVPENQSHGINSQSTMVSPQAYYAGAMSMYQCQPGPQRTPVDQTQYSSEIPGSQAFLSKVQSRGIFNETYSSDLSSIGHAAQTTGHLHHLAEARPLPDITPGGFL
# test.summary: In vitro assay 3: antagonism in mouse cell line (AHR transactivation, firefly luciferase reporter, kynurenic acid prestimulated)
# Assay type: cell-based
# condition: Hepa 1c1c7 cells, 200 μM kynurenic acid, 20 hours, firefly luciferase reporter, read-out: AHR Antagonism Mouse IC50
Field pIC50 (float): negative decimal logarithm of the concentration in molar.

See these solved cases before continuing.
compound: O=C1NCCCC[C@H]1Nc1nc2c(C(F)(F)F)cccc2c2nc(-c3ccc(Cl)cc3)nn12 [Example 833]
metric: pIC50
reading: 8.90
--
compound: C[C@@H](Nc1nc2c(Br)cccc2c2nc(-c3cnn(C)c3)nn12)C(=O)N1C[C@H]2C[C@@H]1CO2 [Example 898]
metric: pIC50
reading: 7.60
--
compound: CCn1cc(-c2nc3c4cccc(S(C)(=O)=O)c4nc(N[C@@H]4CNCCNC4=O)n3n2)c(C)n1 [Example 945]
metric: pIC50
reading: 5.68

Using the record for COc1ccc(-c2nc3c4cccc(C)c4nc(N[C@H]4CNCCNC4=O)n3n2)cc1 [Example 970] , state its measured pIC50.
7.28

Using the record for CCS(=O)(=O)c1cccc2c1nc(N[C@@H]1CCCCNC1=O)n1nc(-c3ccc(OC)cc3)nc21 [Example 844] , state its measured pIC50.
7.96

Just for reference, patent US20230113037A1 is where these values come from.
